tested on: Saccharomyces cerevisiae; assay: protein stability index of tFT-peptide fusion (C-terminal peptide) (PSI (0-1 scale)); higher = more stable (slower turnover); details: genetic background: wild type; temperature: 30 C
Reported protein stability index values for a set of sequences
MEASUREMENT_NAME: protein stability index

1. IRSLRWVRRESV : 0.706
2. PVDFQSQGECEL : 0.695
3. LSVVLARLCQGS : 0.684
4. PPPSPPPSLSLP : 0.702
5. PTIMYIRKTEER : 0.692
6. SPPLPRLSPLPN : 0.686
7. PHEKDKNMGKQK : 0.702
8. PNVHMRVFELFM : 0.72
9. LSGCASGYRPPW : 0.683
10. GKKGKEKGEEKR : 0.716
11. EKGRVGLKIIKE : 0.695
12. LPPRPTPPPPPP : 0.71
13. GREEDLVAPPFN : 0.715

----------
test system: Saccharomyces cerevisiae; assay: protein stability index of tFT-peptide fusion (C-terminal peptide) (PSI (0-1 scale)); higher = more stable (slower turnover); details: genetic background: wild type; temperature: 30 C
Recorded protein stability index, one value per entry.
MEASUREMENT_NAME: protein stability index

1) GARRLGLMVFDG : 0.669
2) LSRLRVLLTPIS : 0.56
3) SRVAEIERVQWL : 0.655

----------
test system: Saccharomyces cerevisiae; assay: protein stability index of tFT-peptide fusion (C-terminal peptide) (PSI (0-1 scale)); higher = more stable (slower turnover); details: genetic background: wild type; temperature: 30 C
MEASUREMENT_NAME: protein stability index

1. PPPQSFLPRPPH : 0.713
2. RWGGGGSVSFWW : 0.712
3. PPPAPRRTRRPS : 0.698
4. PDPPPRCRFLPL : 0.698
5. KSSNIDINCNQN : 0.691
6. CSGPARERPVRF : 0.709
7. FYAGELSCRHQT : 0.694
8. DPLIILLSSVKL : 0.718
9. SVRGMFPSAGVS : 0.693
10. NTTIQLWVERRQ : 0.679
11. PLSVPHQPLCPV : 0.686
12. QITYKTLSGINM : 0.703
13. ALWGHSWHSSLR : 0.713
14. LFRFFPWPPPPA : 0.682
15. IRLQKEGIKKIL : 0.699
16. TSGEIESTSKKK : 0.689
17. FPWFYPNHLEVP : 0.698
18. SPSCSLLCPLPR : 0.72
19. HWRRGGRSGGDR : 0.71
20. LIFLPPSPLPLS : 0.709
21. GLAFVGWGPRFR : 0.71
22. SSLLSPLRSAFL : 0.71
23. DCFSASIHYCPS : 0.714

----------
test system: Saccharomyces cerevisiae; test: protein stability index of tFT-peptide fusion (C-terminal peptide) (PSI (0-1 scale)); higher = more stable (slower turnover); conditions: genetic background: wild type; temperature: 30 C
MEASUREMENT_NAME: protein stability index

1. WGRGWWEMVGRT : 0.686
2. APFLDRSSPRSF : 0.707
3. WGRAGPSSPCSC : 0.709
4. GASSLGVNGGSV : 0.695
5. PSPPPPPALPSH : 0.66
6. VLLHFRSFAPPV : 0.613
7. SLEWGGGRRWPI : 0.719
8. SVLRCPVILLAY : 0.0975
9. GGPGWGVSGWEG : 0.705
10. SYTLSGYGSRDN : 0.698
11. TLRVNAMFVEAM : 0.63
12. PPHRPPTRPRPR : 0.64
13. ACDFCIPGVRLD : 0.745
14. DTSENSVKFTKV : 0.733
15. PSPPSRFPPCTP : 0.77
16. LMVCQKPYCMRI : 0.678
17. LGRPCGGVAGEQ : 0.637
18. TPPSPLPPSPPR : 0.728
19. AVMGQRQAESPV : 0.693

----------
system: Saccharomyces cerevisiae; test: protein stability index of tFT-peptide fusion (C-terminal peptide) (PSI (0-1 scale)); higher = more stable (slower turnover); conditions: genetic background: das1 deletion; temperature: 30 C
MEASUREMENT_NAME: protein stability index

1) KKGPKFKSRKKL [RRP12 C-terminal 12 aa] : 0.748
2) KKLRQPKEGETF [MMS2 C-terminal 12 aa] : 0.705
3) YNKLKGAGHKKE [PAI3 C-terminal 12 aa] : 0.678
4) ACILMAISQFNS [KSH1 C-terminal 12 aa] : 0.619
5) IYLLSDYEKDNI [CMR2 C-terminal 12 aa] : 0.709
6) ITFIASLMTLNK [SAC6 C-terminal 12 aa] : 0.669
7) IHDFPKSHIVDF [IKI3 C-terminal 12 aa] : 0.733
8) GPCVDALLSLSE [VPS9 C-terminal 12 aa] : 0.74
9) QSARRQRGSIAM [SDS24 C-terminal 12 aa] : 0.683
10) LSSKKQTVMDKE [POL5 C-terminal 12 aa] : 0.646
11) IEEMLEIISGYA [RPC17 C-terminal 12 aa] : 0.566
12) AITSAQELLDSK [RBL2 C-terminal 12 aa] : 0.687
13) FNISDYFSDIHE [ORC5 C-terminal 12 aa] : 0.744
14) RAVTNRSSCSRR [YCR038W-A C-terminal 12 aa] : 0.697
15) LLGVGIAFYQDR [YJR112W-A C-terminal 12 aa] : 0.706
16) NSIISLEALDAI [SMX2 C-terminal 12 aa] : 0.72
17) RLSMLRPPSSSS [RSC2 C-terminal 12 aa] : 0.718
18) LNEYSKDPPGNN [RAD18 C-terminal 12 aa] : 0.704
19) DISDKIRRMQSR [MGP12 C-terminal 12 aa] : 0.692
20) TLIDYFIENDGL [LYS5 C-terminal 12 aa] : 0.723
21) WPRVASNSGVVV [RPL23A C-terminal 12 aa] : 0.704
22) NMVNFESEKVNR [YVH1 C-terminal 12 aa] : 0.706

----------
Recorded protein stability index for the following sequences
tested on: Saccharomyces cerevisiae; assay: protein stability index of tFT-peptide fusion (C-terminal peptide) (PSI (0-1 scale)); higher = more stable (slower turnover); conditions: genetic background: wild type; temperature: 30 C
MEASUREMENT_NAME: protein stability index

1) RLKLKSECYSPL : 0.667
2) CGVYGRVVEWGG : 0.706
3) LCSVVIFCLVWG : 0.324
4) LPQLPNSRRLPL : 0.648
5) RRPRIANIETDY : 0.678
6) PPPPPLPPPSPP : 0.598
7) CVIVCVLVWGRA : 0.24
8) PPPSPSPPPAPG : 0.694
9) VLLGCRRAWVGF : 0.669
10) VLWVYLFLFVIF : 0.255
11) PPGAPPYPSPPP : 0.569
12) GSLFLRQHTLLR : 0.645
13) CFLSFLLFSSSP : 0.558
14) AAPSPHPLNSLS : 0.687
15) GRLSQWVPNGRA : 0.681
16) LSLSILFTPSPN : 0.682
17) AVVFCSIPCLRV : 0.575
18) GLGVSLLVGGEA : 0.657
19) RGACGWVDWWGL : 0.856
20) ILLSVAMNLRKH : 0.571
21) IVLLNLTHVRSK : 0.647
22) CGGSLGAPVLVG : 0.588
23) HRPSPLPPRVPL : 0.673
24) RRESAGFGLVWG : 0.709
25) RQWAISRRWVVR : 0.562
26) ALFVGVVLLVCW : 0.298
27) PPPPPIPPPLVP : 0.658
28) RGTYACGMGGVG : 0.654
29) VALLRDSCLGVV : 0.671

----------
test system: Saccharomyces cerevisiae; test: protein stability index of tFT-peptide fusion (C-terminal peptide) (PSI (0-1 scale)); higher = more stable (slower turnover); details: genetic background: wild type; temperature: 30 C
MEASUREMENT_NAME: protein stability index

1) SLVLLVASVTGS : 0.464
2) RSWVGVEWVGGM : 0.595
3) QPITEALHDSCT : 0.675
4) PSGPPPSLFPSA : 0.661
5) RPASVHDLSLQC : 0.681
6) RSLYGLMNPPRG : 0.71
7) PRNTPPRRAPTR : 0.648
8) RHAHPLTAQLPL : 0.705
9) QAGARGRRGVRG : 0.678
10) YRPPPLSPPSPP : 0.695
11) SNTKLIGGFFRD : 0.646
12) AKLDMARGGGVV : 0.645
13) VLIFSSFRSLVF : 0.562
14) GGVVLDEEVGCG : 0.614
15) LKGVNPVNLHEL : 0.66
16) FFPPLLSFPPTD : 0.719
17) QKKELQKQKIAK : 0.683
18) PGLGVGATRCVH : 0.734
19) RPLPPPPAPPPL : 0.706
20) RGKREEQVRGGD : 0.622
21) RVEELKFKNLII : 0.663
22) PHSDGVRLAEGF : 0.713
23) LSARSSFIFSYY : 0.645
24) SLAPLPLIVLFL : 0.487
25) QMTCADGVDCLL : 0.589
26) CLGLRFDFYGFV : 0.702
27) FFLDVMFLLFFF : 0.445
